Origin of measurements: ChEMBL document CHEMBL3259723

- System: Staphylococcus aureus
- runDescription: Antibacterial activity against methicillin-sensitive Staphylococcus aureus MTCC 737 assessed as growth inhibition by broth microdilution method
- Type: functional
resultType: MIC (µM)
Report the value in µM with no unit label.

Fill in: MIC of CCCCCCCCCCCCCCNCCCNC(=O)[C@H]1NC(=O)[C@H]2NC(=O)[C@H](NC(=O)[C@@H]3NC(=O)[C@H](CC(N)=O)NC(=O)[C@H](NC(=O)[C@@H](CC(C)C)NC)[C@H](O)c4ccc(c(Cl)c4)Oc4cc3cc(c4O[C@@H]3O[C@H](CO)[C@@H](O)[C@H](O)[C@H]3O[C@H]3C[C@](C)(N)[C@H](O)[C@H](C)O3)Oc3ccc(cc3Cl)[C@H]2O)c2ccc(O)c(c2)-c2c(O)cc(O)cc21 is ___
0.55

Fill in: MIC of CN[C@H](CC(C)C)C(=O)N[C@H]1C(=O)N[C@@H](CC(N)=O)C(=O)N[C@H]2C(=O)N[C@H]3C(=O)N[C@H](C(=O)N[C@H](C(=O)NCCCN(C)C)c4cc(O)cc(O)c4-c4cc3ccc4O)[C@H](O)c3ccc(c(Cl)c3)Oc3cc2cc(c3O[C@@H]2O[C@H](CO)[C@@H](O)[C@H](O)[C@H]2O[C@H]2C[C@](C)(N)[C@H](O)[C@H](C)O2)Oc2ccc(cc2Cl)[C@H]1O is ___
0.62

Fill in: MIC of CCCCCCCCCC[N+](C)(C)CCCNC(=O)[C@H]1NC(=O)[C@H]2NC(=O)[C@H](NC(=O)[C@@H]3NC(=O)[C@H](CC(N)=O)NC(=O)[C@H](NC(=O)[C@@H](CC(C)C)NC)[C@H](O)c4ccc(c(Cl)c4)Oc4cc3cc(c4O[C@@H]3O[C@H](CO)[C@@H](O)[C@H](O)[C@H]3O[C@H]3C[C@](C)(N)[C@H](O)[C@H](C)O3)Oc3ccc(cc3Cl)[C@H]2O)c2ccc(O)c(c2)-c2c(O)cc(O)cc21 is ___
0.31
